test: Inhibition of Phosphatidylinositol 3-kinase from bovine brain; set-up: species or system Bos taurus
Quick rule for you: IC50 under 2 ng/mL gets YES, anything else gets NO.

See these solved cases before continuing.
>>> label_value("CCC(=O)O[C@@H]1C[C@]2(C)C(OC(C)=O)CC[C@H]2C2=C1[C@]1(C)c3c(coc3C2=O)C(=O)O[C@@H]1COC (some centres not stated)")
"NO"
>>> label_value("COC[C@H]1OC(=O)c2coc3c2[C@@]1(C)C1=C(C3=O)[C@@H]2CCC(=O)[C@@]2(C)C[C@H]1OC(=O)CCl")
"YES"
>>> label_value("COC[C@H]1OC(=O)c2coc3c2[C@@]1(C)C1=C(C3=O)[C@@H]2CCC(=O)[C@@]2(C)C[C@H]1OC(=O)CC(C)C")
"YES"

Q. Field: below-cutoff. Rule: recorded IC50 strictly less than 2 ng/mL. Subject: "COC[C@H]1OC(=O)c2coc3c2[C@@]1(C)C1=C(C3=O)[C@@H]2CCC(=O)[C@@]2(C)C[C@H]1OC(C)=O"
A. YES

Q. What about "COC[C@H]1OC(=O)c2coc3c2[C@@]1(C)C1=C(C3=O)[C@@H]2CCC(=O)[C@@]2(C)C[C@H]1OC(=O)Cc1ccccc1" ?
A. YES

Q. What about "CCC(=O)O[C@@H]1C[C@]2(C)C(=O)CC[C@H]2C2=C1[C@]1(C)c3c(coc3C2=O)C(=O)O[C@@H]1COC" ?
A. YES

Values were extracted from ChEMBL document CHEMBL1129056.
